Each record here notes measured pIC50.
Assay remarks: in vitro
Please keep in mind that pIC50 is minus log10 of the molar concentration; only the number is needed.

Cl.Cl.c1cc(C2=NCCN2)ccc1OCCCCOc1ccc(-c2cc3cc(C4=NCCN4)ccc3o2)cc1 [Compound 49, dihydrochloride]    5.54
Cl.Cl.c1cc(C2=NCCN2)ccc1OCCCCCCOc1ccc(-c2cc3ccc(C4=NCCN4)cc3o2)cc1 [Compound 79, dihydrochloride]    5.46
CC(C)NC(=N)c1ccc(OCCCCOc2ccc(-c3cc4cc(C(=N)NC(C)C)ccc4o3)cc2)cc1.Cl.Cl [Compound 48, dihydrochloride]    5.16

Shift focus to the following entry.
Data request: Using the record for CONC(=N)c1ccc2oc(CCCCc3cc4cc(C(=N)NOC)ccc4o3)cc2c1 , report its pIC50.
Data returned: 4.13

---

Assay remarks: in vitro
Quantity measured: IC50 (µM)
Just the number please, in µM, no unit attached.

N=C(NO)c1cccc(-c2cc3ccc(C(=N)NO)cc3o2)c1    13.8
COc1cc(C2=NCCN2)cc2cc(-c3ccc(C4=NCCN4)cc3)oc12    19.9

Data request: Would you mind telling me what IC50 value was observed for N=C(N)c1ccc(-c2cc3ccc(C(=N)N)cc3o2)cc1 ?
Data returned: 0.83

Data request: Endpoint output: IC50 of CC(C)NC(=N)c1ccc(OCCCCCOc2cccc(-c3cc4ccc(C(=N)NC(C)C)cc4o3)c2)cc1.Cl.Cl [Compound 63, dihydrochloride] . Value?
Data returned: 20.1

Data request: For CC(C)NC(=N)c1ccc(OCCCCCCOc2ccc(-c3cc4ccc(C(=N)NC(C)C)cc4o3)cc2)cc1.Cl.Cl [Compound 78, dihydrochloride] , what is its reported IC50?
Data returned: 4.9

Data request: Sample N=C(NO)c1ccc2cc(CCCCCc3cc4ccc(C(=N)NO)cc4o3)oc2c1 — what was its IC50?
Data returned: 19.4

---

Assay remarks: in vitro
Quantity measured: log10 of IC50 (log10 of the value in µM)
For clarity, the numbers are log10 values of IC50 expressed in µM.

Here is how some compounds turned out for log10 of IC50.
Cl.Cl.N=C(N)c1ccc(OCCCOc2cccc(-c3cc4cc(C(=N)N)ccc4o3)c2)cc1 [Compound 32, dihydrochloride]    1.02
Cl.Cl.c1cc(OCCCCOc2ccc(C3=NCCN3)cc2)cc(-c2cc3ccc(C4=NCCN4)cc3o2)c1 [Compound 61, dihydrochloride]    0.77
COc1cc(C(=N)N)cc2cc(-c3ccc(C(=N)N)cc3)oc12    1.49
Cl.Cl.c1cc(OCCCOc2ccc(C3=NCCN3)cc2)cc(-c2cc3cc(C4=NCCN4)ccc3o2)c1 [Compound 34, dihydrochloride]    0.81
CC(C)NC(=N)c1ccc(OCCCCCOc2cccc(-c3cc4cc(C(=N)NC(C)C)ccc4o3)c2)cc1.Cl.Cl [Compound 39, dihydrochloride]    1.00

Data request: Which log10 of IC50 value belongs to Cl.Cl.c1cc(C2=NCCN2)ccc1OCCCCCOc1ccc(-c2cc3cc(C4=NCCN4)ccc3o2)cc1 [Compound 52, dihydrochloride] ?
Data returned: -0.06

---

Test system: Trypanosoma cruzi
Assay remarks: Anti-protozoan data: T. cruzi IC50
Type: cell-based
Test parameters: read-out: T. cruzi IC50
pIC50: −log10 of the molar value.
Each entry below carries its recorded pIC50.

Recorded pIC50, per entry:
N=C(NO)c1ccc(-c2cc3cc(C(=N)NO)ccc3o2)cc1    < 3.63
CC(C)NC(=N)c1cccc(-c2cc3cc(C(=N)NC(C)C)ccc3o2)c1    < 3.70
CONC(=N)c1ccc(-c2cc3cc(C(=N)NOC)ccc3o2)cc1    < 3.66

Now turn to the next molecule.
Data request: # returns recorded pIC50 (system: Trypanosoma cruzi) for CC(C)NC(=N)c1ccc(-c2cc3cc(C(=N)NC(C)C)ccc3o2)cc1
Data returned: < 3.70

Every entry's value here was drawn from patent US20080114047A1.
